- targetDesc: T1, CD27 expressed on the cell surface of HT1080_CD27 cells (human, UniProt P26842 20-260)
- T1 sequence (looked up): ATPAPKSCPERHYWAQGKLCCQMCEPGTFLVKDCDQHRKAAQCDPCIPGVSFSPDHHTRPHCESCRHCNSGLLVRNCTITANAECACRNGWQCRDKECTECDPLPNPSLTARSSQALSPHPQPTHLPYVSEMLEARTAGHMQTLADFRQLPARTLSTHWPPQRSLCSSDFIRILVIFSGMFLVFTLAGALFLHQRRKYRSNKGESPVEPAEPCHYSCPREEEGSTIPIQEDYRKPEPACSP
- assayInfo: cell-based or functional assay
quantityMeasured: EC 50 (IL-8 release, cross-linked)
Please append the unit to your numeric answer.

binder	recordedMeasurement
P018.S.02.A.G03 (antibody, V domains shown) VH: QSVEESGGRLVTPGTPLTLTCTVSGFSLSSYVMSWVRQAPGKGLEWIGYIDYGGTAYYASWAKGRFTISKTSTTVELKITSPTIEDTATYFCARGGYGGYILVTGLWGPGTLVTVSS VL: DIVMTQTPASVSEPVGGTVTIKCQASQTIISYLSWYQQKPGQPPKLLIYGASTLASGVPSRFKGSGSVTEYTLTISDLESADAATYYCQTYYGGGPFGNGFGGGTEVVVK	526 ng/mL
P018.S.01.A.H02 (antibody, V domains shown) VH: QSVEESGGRLVTPGTPLTLTCTASGFSLSSYHMQWVRQAPGKGLEWIGIIYAGSGNTWYASWAKGRFTISKTSTTVDLKITSPTTEDTAAYFCARQPGGDASDTQLDLWGQGTLVTVSS VL: AAVLTQTASPVSAAVGGTVTINCQSSQSVFDHNQLSWFQHKPGQSPKLLIYRASTLASGVPSRFKGSGSGTQFTLTISDVQSDDAATYYCLGGYSSSSDTVFGGGTEVVVK	1110 ng/mL

// moving on: another record for EC 50 (IL-8 release, cross-linked)
Which EC 50 (IL-8 release, cross-linked) is listed for P018.S.10.A.A04 (antibody, V domains shown) VH: QSVEESGGRLVTPGTPLTLTCTVSGIDLSSNVMTWVRQAPGKGLEWIGYIYASATTYYATWAKGRFTISKTSTTVDLKMTSPTTEDTATYFCARERLASRGDYSDLWGQGTLVTVSS VL: AYDMTQTPASVEAAVGGTVTIKCQASESIGDLLAWYQQKPGQPPKLLIYDASDLASGVPSRFKGSGSGTEFTLTISGVESADAATYYCQQGYTTTSNVDNIFGGGTEVVVK ?
335 ng/mL
